Source of measurements: the SangsterLogP compilation

Examples of compounds with documented logP follow.
- Protocol Summary: method code SF, from Hansch, C. & Leo, A. (1987). Log P database [Dataset]. Pomona College Medicinal Chemistry Project.
Enter a number only.

The measured logP associated with Cn1c(=O)c(=O)n(C)c2ccccc21 reads 0.08

The measured logP associated with CC(C)c1ccccc1O reads 2.88

The measured logP associated with CCC(C)C(=O)Nc1ccccc1 (stereo not drawn) reads 2.56

The measured logP associated with O=C(OC(=O)c1ccccc1)c1ccccc1 reads 2.26

The measured logP associated with CS(=O)(=O)OCCCCOS(C)(=O)=O reads -0.52

The measured logP associated with O=NN(CCF)C(=O)NC1CCC(NC(=O)N(CCF)N=O)CC1 (stereo not drawn) reads 1.34

The measured logP associated with COC(=O)c1ccccc1Cl reads 2.38

The measured logP associated with O=c1[nH]ncc2ccccc12 reads 0.75
